Cited source: patent US20040191763A1

- Tested on: rtN236T mutant HBV
- method_summary: Whole HBV genome cell culture drug susceptibility assay, rtN236T patient-derived clones
- Type: cell-based, hepatitis B virus
- measurement_conditions: patient-derived HBV strain carrying rtN236T (Table 7); read-out: IC50 rtN23T Mutant
pIC50: −log10 of the molar value.
pIC50 reference
property: pIC50

1. Cc1cn([C@@H]2C[C@@H](O)[C@H](CO)O2)c(=O)[nH]c1=O : 6.48
2. C[C@H](Cn1cnc2c(N)ncnc21)OCP(=O)(O)O : 6.26

* * *

- Tested on: rtN236T mutant HBV
- method_summary: Whole HBV genome cell culture drug susceptibility assay, rtN236T patient-derived clones
- Type: cell-based, hepatitis B virus
- measurement_conditions: patient-derived HBV strain carrying rtN236T (Table 7)
IC50 Fold Change (rtN236T/Wild-type) reference
property: IC50 Fold Change (rtN236T/Wild-type) (fold)

1) Nc1ncnc2c1ncn2CCOCP(=O)(O)O [Adefovir, adefovir] : 9.6
2) C[C@H](Cn1cnc2c(N)ncnc21)OCP(=O)(O)O [Tenofovir, tenofovir] : 4.2
3) C=C1[C@H](CO)[C@@H](O)C[C@@H]1n1cnc2c(=O)[nH]c(N)nc21 [Entecavir, entecavir] : 0.67
4) Cc1cn([C@@H]2C[C@@H](O)[C@H](CO)O2)c(=O)[nH]c1=O [L-dT] : 2.4
5) COc1ccc(Sc2nc(N)nc3c2ncn3CCOCP(=O)(OCC(F)(F)F)OCC(F)(F)F)cc1 [MCC-478] : 8.6

* * *

- Test system: wild-type HBV (baseline patient-derived clones)
- method_summary: Whole HBV genome cell culture drug susceptibility assay, baseline wild-type patient-derived clones
- Assay type: cell-based, hepatitis B virus
- measurement_conditions: Hepatitis B virus, HepG2, 168 h, read-out: Adefovir IC50 Baseline, patient 0626-1537, baseline clones; HepG2 transient transfection, 7 days
pIC50: −log10 of the molar value.
property: pIC50

1. Nc1ncnc2c1ncn2CCOCP(=O)(O)O : 6.59

* * *

- Tested on: rtN236T mutant HBV
- method_summary: Whole HBV genome cell culture drug susceptibility assay, rtN236T patient-derived clones
- Assay type: cell-based, hepatitis B virus
- measurement_conditions: Hepatitis B virus, HepG2, 168 h, read-out: Adefovir IC50 Week 96, patient 0454-2506, week 96 clones with single rtN236T; HepG2, 7 days
property: IC50 (nM)

1. Nc1ncnc2c1ncn2CCOCP(=O)(O)O [Adefovir, adefovir] : 1550
